Listing of entries alongside the reported residual activity.
Target: MAPK10 (human)
Experiment: radiometric filter-binding kinase assay
Details: compound 0.1 µM
Field format: number, assumed %, no unit text.

Answered cases to consult:
Request body: readout residual activity, system MAPK10 (human), query CNC(=O)C1[C@H]2O[C@@](C)([C@@H]1N)n1c3ccccc3c3c4c(c5c6ccccc6n2c5c31)C(=O)NC4 (stereo not given in full) . Return the value.
30

Cool, now "Cc1cccc(-c2nn(C(=S)Nc3ccccc3)cc2-c2ccnc3ccccc23)n1"
119

Same for "COc1ccc(N(C(=O)Nc2c(C)cccc2C)c2cc(Nc3ccc(N4CCN(C)CC4)cc3)ncn2)c(OC)c1"
77

Field entry: "NC(=O)c1cc2c(-c3cccc(-c4ccccc4)c3)cnc(N)c2s1"
97

---
What reported residual activity corresponds to "O=C(O)c1ccc(-c2c[nH]c3ncc(-c4ccccc4)cc23)cc1C1CCCC1" on MAPK10 (human)?
73

What do you get for "COc1ccc(-n2ncc3cnc(Nc4cc(OC)c(OC)c(OCCCN5CCN(C)CC5)c4)nc32)cc1" ?
65

Cool, now "CNc1nc(-c2ccc3c(N)n[nH]c3c2)cc(N2C[C@@H](C(=O)NC3CCCCC3)CC[C@H]2C)n1"
106

And "COc1cc(O)c2c(c1)/C=C/C[C@H](O)[C@H](O)C(=O)/C=C\C[C@H](C)OC2=O" ?
107

Okay, and "CN(C)C/C=C/C(=O)Nc1cccc(C(=O)Nc2ccc(Nc3nccc(-c4cccnc4)n3)cc2)c1" ?
15

* * *

Test system: ROCK2 (rat)
Assay: radiometric filter-binding kinase assay
Conditions: compound 10.0 µM; accession and sequence are those of the human protein
READOUT NAME: residual activity (%)
Report the figure in % without appending any unit label.

Provide value of residual activity for this record tested with ROCK2 (rat): "O=C(Nc1ccccc1-c1cn2c(CN3CCNCC3)csc2n1)c1cnc2ccccc2n1"
79

Same thing, different molecule: "CCOC(=O)c1ccc(N2NC(=O)/C(=C/c3ccc([N+](=O)[O-])o3)C2=O)cc1"
91

---
// lookup residual activity | system=ROCK2 (rat) | key= "Cn1nc(Nc2ccc(F)cc2)c2c(N)ncnc21"
113

Consider next the molecule "O=C(O)c1cc(N=Nc2ccc(S(=O)(=O)Nc3ccccn3)cc2)ccc1O" in the same way.
90

Would you mind doing "N#Cc1c(C2CCNCC2)cc(-c2c(O)cccc2OCC2CC2)nc1N" as well?
61

Next: "Oc1ccc(/C=C/c2cc(O)cc(O)c2)cc1"
83

Follow-up entry: "Oc1ccc2ccccc2c1SSc1c(O)ccc2ccccc12"
78

// next record "Cc1ccc(-c2ccc3c(ccc4sc5c(c43)NC[C@@H](C)NC5=O)n2)cn1"
95

Same for "Cc1nc(-c2ccc(OCC(C)C)c(C#N)c2)sc1C(=O)O"
80

What about "COc1cc2ncn(-c3cc(OCc4ccccc4S(C)(=O)=O)c(C#N)s3)c2cc1OC" ?
61

Note, next up: "CCn1c(-c2nonc2N)nc2cncc(CNC3CCNCC3)c21"
17

COc1ccc2c(c1)c1c3c(c4c5ccccc5n(C)c4c1n2CC(O)CN(C)C)C(=O)NC3=O (configuration not stated) , same question.
112

* * *

Here, each record is paired with measured residual activity data.
Target: UniProt O00418
Sequence (O00418 whole entry, looked up): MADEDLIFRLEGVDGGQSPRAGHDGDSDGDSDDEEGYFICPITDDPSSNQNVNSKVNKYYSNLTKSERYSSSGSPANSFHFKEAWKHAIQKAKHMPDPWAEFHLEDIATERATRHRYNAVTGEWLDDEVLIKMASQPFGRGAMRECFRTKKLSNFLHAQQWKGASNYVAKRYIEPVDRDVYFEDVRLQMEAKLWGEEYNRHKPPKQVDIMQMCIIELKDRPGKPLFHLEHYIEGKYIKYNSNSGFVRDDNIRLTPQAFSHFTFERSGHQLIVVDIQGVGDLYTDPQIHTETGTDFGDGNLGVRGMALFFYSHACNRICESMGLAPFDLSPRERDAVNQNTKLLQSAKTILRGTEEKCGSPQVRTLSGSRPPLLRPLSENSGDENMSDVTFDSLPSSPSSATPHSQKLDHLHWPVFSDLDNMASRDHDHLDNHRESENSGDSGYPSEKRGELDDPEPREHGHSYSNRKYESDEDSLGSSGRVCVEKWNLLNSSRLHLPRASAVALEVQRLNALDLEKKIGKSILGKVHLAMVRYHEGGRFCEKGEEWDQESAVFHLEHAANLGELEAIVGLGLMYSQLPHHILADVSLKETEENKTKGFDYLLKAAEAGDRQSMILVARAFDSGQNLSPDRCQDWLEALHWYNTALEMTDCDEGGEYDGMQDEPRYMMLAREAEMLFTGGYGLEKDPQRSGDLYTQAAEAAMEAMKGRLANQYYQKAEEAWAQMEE
Experiment: radiometric filter-binding kinase assay
Conditions: compound 0.1 µM
Answer in %, number only, no unit symbol.

What measured residual activity goes with "CCn1c(-c2nonc2N)nc2cncc(CNC3CCNCC3)c21" ?
118

Same lookup for "Cc1cccc(-c2nn(C(=S)Nc3ccccc3)cc2-c2ccnc3ccccc23)n1" , please.
102

Then "CCc1cncnc1N1CCN(Cc2nc3cc(C(F)(F)F)ccc3[nH]2)CC1" ?
90

Next compound: "CCCCCc1ccc(/C=C/[C@H](O)[C@@H](CO)NC)cc1"
93

Now the compound "O=C(NCCCNc1nc(Nc2cccc(CN3CCOCC3)c2)ncc1C1CC1)C1CCC1"
98

Try the compound "COc1ccc(-n2ncc3cnc(Nc4cc(OC)c(OC)c(OCCCN5CCN(C)CC5)c4)nc32)cc1"
100

Further, for CC1=C(CO)C(=O)O[C@@H]([C@@H](C)[C@H]2CC[C@H]3[C@@H]4C[C@H]5O[C@]56[C@@H](O)C=CC(=O)[C@]6(C)C4CC[C@]23C)C1 (stereo not given in full) ?
104

Field entry: "NC(=O)Nc1ccc2c(c1)/C(=C/c1cc(-c3cccnc3)c[nH]1)C(=O)N2"
102

Proceed to "c1ccc2c(-c3cnn4cc(-c5ccc(N6CCNCC6)cc5)cnc34)ccnc2c1"
95

Here is the next compound: "COc1ccc(N(C(=O)Nc2c(C)cccc2C)c2cc(Nc3ccc(N4CCN(C)CC4)cc3)ncn2)c(OC)c1"
108

Kindly review the next compound as well.
Entry "O=C(N[C@@H](COc1ccc2[nH]c(=O)[nH]c2c1)c1ccccc1)c1cccn(Cc2ccc(F)c(F)c2)c1=O" : reported residual activity = ?
95

* * *

System: ROCK2 (rat)
Test: radiometric filter-binding kinase assay
Conditions: compound 0.01 µM; accession and sequence are those of the human protein
residual activity for assorted compounds
Reply with a number, then the unit it belongs to.

Here are 5 compounds together with their reported answers.
Recorded residual activity for "C/C(=C1/C(=O)Nc2ccc(NC(N)=O)cc21)c1ccc[nH]1" , please?
90%

Now give it for "CNc1nc(-c2ccc3c(N)n[nH]c3c2)cc(N2C[C@@H](C(=O)NC3CCCCC3)CC[C@H]2C)n1" too.
96%

How about CNC(=O)C1[C@H]2O[C@@](C)([C@@H]1N)n1c3ccccc3c3c4c(c5c6ccccc6n2c5c31)C(=O)NC4 (stereo partly specified) ?
82%

Also check "COc1ccc(N(C(=O)Nc2c(C)cccc2C)c2cc(Nc3ccc(N4CCN(C)CC4)cc3)ncn2)c(OC)c1"
90%

Repeat with "O=C(Nc1nc2cc(C(F)(F)F)cc(NC3CC3)n2n1)c1cccnc1"
105%

Continuing:
Fill in the blank: the reported residual activity of COc1cc(O)c2c(c1)[C@H]1OC1C[C@H](O)[C@H](O)C(=O)/C=C\C[C@H](C)OC2=O (stereo partly specified) is ____.
91%

* * *

Quick list: residual activity per entry.
Target: UniProtKB P28482
Sequence (P28482 whole entry, looked up): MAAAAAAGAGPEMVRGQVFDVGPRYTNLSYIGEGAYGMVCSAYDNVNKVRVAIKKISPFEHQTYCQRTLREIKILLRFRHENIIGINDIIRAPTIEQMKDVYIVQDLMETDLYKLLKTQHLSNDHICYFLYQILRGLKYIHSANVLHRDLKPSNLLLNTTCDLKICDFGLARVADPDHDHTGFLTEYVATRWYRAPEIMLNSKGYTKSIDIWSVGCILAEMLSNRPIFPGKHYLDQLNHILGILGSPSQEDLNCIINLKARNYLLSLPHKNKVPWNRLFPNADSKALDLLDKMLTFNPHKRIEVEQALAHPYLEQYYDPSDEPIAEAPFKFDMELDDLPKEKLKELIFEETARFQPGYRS
Assay: radiometric filter-binding kinase assay
Settings: compound 10.0 µM
Give just the numeric value; % need not be written.

Fill blank: measured residual activity of the compound "COc1cc2ncn(-c3cc(OCc4ccccc4S(C)(=O)=O)c(C#N)s3)c2cc1OC" is ____.
88

Try "Cn1nc(Nc2ccc(F)cc2)c2c(N)ncnc21" next.
110

And "CCCC(CCC)C(=O)O" ?
77

Also "NS(=O)(=O)OC[C@@H]1C[C@@H](n2ccc3c(N[C@H]4CCc5ccccc54)ncnc32)C[C@@H]1O" ?
89

# repeat for "N#Cc1c(O)c2c(-c3ccc(-c4ccccc4O)cc3)csc2[nH]c1=O"
103

# context switch: different compound, same residual activity
Recorded residual activity of "CN1C(=O)[C@@H](Cc2c[nH]c3ccccc23)NC1=S" , please.
92

* * *

Known residual activity of a selection of compounds
Target: DDR2 (human) (UniProt Q16832)
Sequence (Q16832 whole entry, looked up): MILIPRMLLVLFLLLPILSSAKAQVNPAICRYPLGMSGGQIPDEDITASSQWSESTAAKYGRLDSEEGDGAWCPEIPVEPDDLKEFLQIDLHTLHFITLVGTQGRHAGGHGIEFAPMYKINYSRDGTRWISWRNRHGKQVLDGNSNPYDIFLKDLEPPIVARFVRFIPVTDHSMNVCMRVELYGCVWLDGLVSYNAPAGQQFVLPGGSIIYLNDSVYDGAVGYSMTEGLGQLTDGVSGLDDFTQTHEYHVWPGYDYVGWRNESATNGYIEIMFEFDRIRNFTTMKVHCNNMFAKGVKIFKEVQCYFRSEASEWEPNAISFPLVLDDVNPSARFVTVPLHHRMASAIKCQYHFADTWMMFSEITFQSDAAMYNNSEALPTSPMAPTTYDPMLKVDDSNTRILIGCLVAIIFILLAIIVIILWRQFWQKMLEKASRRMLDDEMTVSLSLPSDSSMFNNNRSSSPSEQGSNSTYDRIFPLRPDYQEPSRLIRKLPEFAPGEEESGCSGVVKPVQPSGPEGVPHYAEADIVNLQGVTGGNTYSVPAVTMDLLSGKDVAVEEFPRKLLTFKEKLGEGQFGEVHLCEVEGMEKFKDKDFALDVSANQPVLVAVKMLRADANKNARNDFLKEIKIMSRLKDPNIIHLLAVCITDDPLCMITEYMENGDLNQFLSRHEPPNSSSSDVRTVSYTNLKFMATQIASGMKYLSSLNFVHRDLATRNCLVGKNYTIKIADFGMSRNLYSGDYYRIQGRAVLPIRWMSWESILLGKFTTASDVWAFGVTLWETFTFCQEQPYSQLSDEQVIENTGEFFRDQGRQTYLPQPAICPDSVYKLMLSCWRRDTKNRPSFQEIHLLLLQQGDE
Assay: radiometric filter-binding kinase assay
Settings: compound 0.1 µM
Please state the figure in %; there is no need to write the unit.

Entry "CN1CCN(CCOc2cc(OC3CCOCC3)c3c(Nc4c(Cl)ccc5c4OCO5)ncnc3c2)CC1" has what residual activity?
20

Field entry: "Cc1ccc(-c2ccc3c(ccc4sc5c(c43)NC[C@@H](C)NC5=O)n2)cn1"
105

Another compound to check: "Cc1cc(NC(=O)c2cccc(NC(=O)/C=C/CN(C)C)c2)ccc1Nc1nccc(-c2cccnc2)n1"
106

Can you handle COc1cc(O)c2c(c1)[C@H]1OC1C[C@H](O)[C@H](O)C(=O)/C=C\C[C@H](C)OC2=O (stereo not given in full) next?
113

Next, consider the following compound.
Give the measured residual activity of CNC(=O)C1[C@H]2O[C@@](C)([C@@H]1N)n1c3ccccc3c3c4c(c5c6ccccc6n2c5c31)C(=O)NC4 (stereo not given in full) .
8

* * *

Readings of residual activity for the listed compounds
Biological target: MAPK3 (human)
Test: radiometric filter-binding kinase assay
Conditions: compound 0.1 µM
Give just the numeric value; % need not be written.

Past entries and their recorded results:
Which residual activity reading was recorded for the compound "CNc1nc(-c2ccc3c(N)n[nH]c3c2)cc(N2C[C@@H](C(=O)NC3CCCCC3)CC[C@H]2C)n1" ?
106

Now this one: "CN(C)C/C=C/C(=O)Nc1cccc(C(=O)Nc2ccc(Nc3nccc(-c4cccnc4)n3)cc2)c1"
110

Next compound: "NC(=O)Nc1ccc2c(c1)/C(=C/c1cc(-c3cccnc3)c[nH]1)C(=O)N2"
71

How about this compound: CNC(=O)C1[C@H]2O[C@@](C)([C@@H]1N)n1c3ccccc3c3c4c(c5c6ccccc6n2c5c31)C(=O)NC4 (some centres undefined)
4

Entry to check: "O=C(Nc1nc2cc(C(F)(F)F)cc(NC3CC3)n2n1)c1cccnc1"
127

***
Which residual activity is listed for "COc1ccc(-n2ncc3cnc(Nc4cc(OC)c(OC)c(OCCCN5CCN(C)CC5)c4)nc32)cc1" ?
111

Moving on to "Cc1cccc(-c2nn(C(=S)Nc3ccccc3)cc2-c2ccnc3ccccc23)n1"
105

What about "NC(=O)c1cc(-c2ccnc(NC3CCCCC3)c2)nc(N2CCNCC2)c1" ?
78

Likewise for CC1=C(CO)C(=O)O[C@@H]([C@@H](C)[C@H]2CC[C@H]3[C@@H]4C[C@H]5O[C@]56[C@@H](O)C=CC(=O)[C@]6(C)C4CC[C@]23C)C1 (some centres undefined) ?
99

Values from the kinase profiling compilation of Christmann-Franck et al. (2016)
